Biological target: Cytochrome P450 2D6 (Homo sapiens) (UniProt P10635)
Sequence (P10635 whole entry, looked up): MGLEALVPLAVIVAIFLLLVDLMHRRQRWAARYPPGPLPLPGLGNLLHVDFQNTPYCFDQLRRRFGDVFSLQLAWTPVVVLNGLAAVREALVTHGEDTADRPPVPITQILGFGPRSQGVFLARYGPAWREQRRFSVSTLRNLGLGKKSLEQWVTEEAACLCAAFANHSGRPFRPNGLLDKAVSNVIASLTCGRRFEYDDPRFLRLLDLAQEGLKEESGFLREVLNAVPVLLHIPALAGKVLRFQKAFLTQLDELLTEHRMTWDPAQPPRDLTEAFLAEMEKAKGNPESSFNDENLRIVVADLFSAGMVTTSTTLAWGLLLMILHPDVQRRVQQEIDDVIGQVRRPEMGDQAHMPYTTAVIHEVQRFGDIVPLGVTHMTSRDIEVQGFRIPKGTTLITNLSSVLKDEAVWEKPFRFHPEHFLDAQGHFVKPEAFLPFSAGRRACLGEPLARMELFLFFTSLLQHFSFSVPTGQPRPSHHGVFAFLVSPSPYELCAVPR
Experiment: qHTS Assay for Inhibitors and Substrates of Cytochrome P450 2D6 (AID 891); further: nearly all actives have a fitted effect of over 60% in size
Settings: recombinant CYP2D6, luciferin-ME EGE luminescence; series mostly up to 57.1 µM
Results filed as inconclusive are left out. Active and inactive are the calls of the source. The call rests on the fitted dose curve; in most records, active means well fitted inhibition curve with a large enough effect; inconclusive means small, poorly fitted or top-dose-only effect; inactive means no such curve, though single readings can be large or run the other way.
I would appreciate it if you answered using one of these outcomes: active, inactive

C[C@@H](C(=O)NCCF)[C@H]1C[C@]1(C)[C@H](NC(=O)OCc1ccccc1)c1ccccc1 active
CC(C)[C@@H](CC(=O)N[C@@H]1CCNC[C@H]1C(=O)N[C@H](CC(=O)N[C@@H](CCC(=O)O)CC(=O)O)Cc1ccccc1)NC(=O)C[C@H](CO)NC(=O)[C@@H]1CCCC[C@H]1N inactive

Alright, here's another molecule for you.
Prompt line: Called result for CC(C)C[C@@H](CC(=O)N[C@@H](CCC(=O)O)CC(=O)O)NC(=O)[C@@H]1CNCC[C@H]1NC(=O)C[C@@H](NC(=O)C[C@H](CO)NC(=O)[C@@H]1CNCC[C@H]1N)C(C)C
Response line: inactive
